Ref: ChEMBL document CHEMBL1201862

Test system: Malme-3M
Assay: NCI tumour cell line growth inhibition, 48 h
Calls of active or inactive are those of the source. Rule as the data show it: active = GI50 up to about 1.1 µM and inactive = higher.
Reply using exactly one outcome from 1.0 for active, 0.0 for inactive

Some entries whose results are on file:
{"COMPOUND": "CC1=C[C@]2(CC(C)C3C(CC4(C)C5CCC6C(C)(C)C(=O)CC[C@@]67C[C@@]57CC[C@]34C)O2)OC1=O (stereo partly drawn)", "TARGET": "Malme-3M", "CLASSIFICATION": 0.0}
{"COMPOUND": "Nc1ccc(COC(O)CN2CCCCC2)cc1[N+](=O)[O-] (stereo not drawn)", "TARGET": "Malme-3M", "CLASSIFICATION": 0.0}
{"COMPOUND": "O=P(O)(CN1CCN(CP(=O)(O)c2ccccc2)CCN(CP(=O)(O)c2ccccc2)CC1)c1ccccc1", "TARGET": "Malme-3M", "CLASSIFICATION": 0.0}
{"COMPOUND": "CC1Oc2c(c(=O)oc3ccccc23)[C@@]1(C)CC1C[C@H](C)C(=O)O1 (stereo partly drawn)", "TARGET": "Malme-3M", "CLASSIFICATION": 0.0}
{"COMPOUND": "N/C(=N\\c1ccc(Cl)cc1)NS(=O)(=O)c1ccc(-c2ncccc2C(F)(F)F)s1", "TARGET": "Malme-3M", "CLASSIFICATION": 0.0}

Qu. Please share the test call associated with C=C1CC[C@@H](C)[C@](C)(CCc2ccoc2)C/C=C\C=C/1C(=O)O .
Ans. 0.0

Qu. Please share the test call associated with CCOC(=O)C(O)(NC(=O)c1ccc(F)cc1)C(F)(F)F (stereo not drawn) .
Ans. 0.0

Qu. Please share the test call associated with CCC(=O)N1NC(=O)C(CC)(CC)C1=O .
Ans. 1.0

Qu. Please share the test call associated with O=C(NC1=C(Cl)C(=O)c2ccccc2C1=O)C(=O)C(C(=O)c1ccc2ccccc2c1)C1OC(=O)c2ccccc21 (stereo not drawn) .
Ans. 0.0

Qu. Please share the test call associated with COc1cccc(N2C(=O)C3c4[nH]c5ccc(C)cc5c4C4CCC(C(C)(C)C)CC4C3C2=O)c1 (stereo not drawn) .
Ans. 0.0

----------
Test system: U-251
Assay: NCI tumour cell line growth inhibition, 48 h
Activity calls are given as the source filed them. Cut-off read from the data, not from the text of the source: active = GI50 up to about 1.1 µM and inactive = higher.
Reply using exactly one outcome from active, inactive

Some entries whose results are on file:
{"MOLECULE": "COc1ccccc1/C=C/C1=NN(c2cccc(S(=O)(=O)O)c2)C2(C1)SCC(=O)N2c1nc2ccccc2s1 (stereo not drawn)", "CLASSIFICATION": "inactive"}
{"MOLECULE": "O=C(Cn1c2ccc(Br)cc2c2nc3ccccc3nc21)N/N=C/c1ccccc1", "CLASSIFICATION": "inactive"}
{"MOLECULE": "COC1CC(N)(c2ccccc2)C(O)C(C)O1 (stereo not drawn)", "CLASSIFICATION": "inactive"}
{"MOLECULE": "Nc1ncc2c(n1)-c1ccccc1OC2", "CLASSIFICATION": "inactive"}
{"MOLECULE": "CC(=O)CCCCn1c(=O)c2c(nc(Br)n2C)n(C)c1=O", "CLASSIFICATION": "inactive"}
{"MOLECULE": "COc1cc2c3c(c1OC)-c1c(ccc4c1OCO4)CC3(C#N)N(C(=O)c1ccccc1)CC2 (stereo not drawn)", "CLASSIFICATION": "inactive"}

Qu. Please share the test call associated with O=c1c2c3c(sc2nc(S)n1-c1ccccc1)CCCc1ccc([N+](=O)[O-])cc1-3 .
Ans. inactive

Qu. Please share the test call associated with CN(C)C(=O)Nc1c([N+](=O)[O-])cc(C(F)(F)F)cc1[N+](=O)[O-] .
Ans. inactive

Qu. Please share the test call associated with N#CC1(C#N)C2CCCCC23OC(=N)C1(C#N)C(c1ccco1)O3 (stereo not drawn) .
Ans. inactive

Qu. Please share the test call associated with C=C(C)C12OC3(c4ccccc4)OC1C1C4OC4(CO)C(O)C4(O)C(=O)C(C)=CC4C1(O3)C(C)C2OC(=O)/C=C/C=C/c1ccccc1 (stereo not drawn) .
Ans. active

Qu. Please share the test call associated with CN(C)CCNC(=O)c1cccc2ccc(-c3cccnc3)nc12 .
Ans. inactive

Qu. Please share the test call associated with C[P+](C)(C)C .
Ans. inactive

Qu. Please share the test call associated with Cn1c2ccccc2c(=O)c2cccc(C(=O)NC(CCCNC(=N)N)C(=O)O)c21 (stereo not drawn) .
Ans. inactive

Qu. Please share the test call associated with COc1cc(-c2c3c(cc4c2OCO4)[C@@H](Nc2ccc(-c4ccc(-c5ccc(N[C@@H]6c7cc8c(cc7C(c7cc(OC)c(O)c(OC)c7)[C@H]7C(=O)OC[C@H]67)OCO8)cc5)cc4)cc2)[C@H]2COC(=O)[C@@H]2C3)cc(OC)c1O (stereo partly drawn) .
Ans. inactive

Qu. Please share the test call associated with COc1ccc(NC(=O)/C(=N/NC(N)=S)C2C(=O)NC(=S)NC2=O)c(OC)c1 .
Ans. inactive

Qu. Please share the test call associated with O=C(NC(=O)c1cc(-c2ccccc2)n[nH]1)c1ccccc1 .
Ans. inactive

Qu. Please share the test call associated with O=S(=O)(O)c1cc2ccc1/C=C\c1ccc(cc1S(=O)(=O)O)/N=N\c1ccc(c(S(=O)(=O)O)c1)/C=C\c1ccc(cc1S(=O)(=O)O)/N=N\2 .
Ans. inactive

Qu. Please share the test call associated with Cc1ccc(Cc2cc(N3CCN(c4cccc(Cl)c4)CC3)nnc2C)cc1 .
Ans. inactive
